# credit: patent US20240409663A1

Target: T1, human GPC3 on cells (human, UniProt P51654 25-554)
T1 construct: whole, on cells; over-expressed on CHOK1 cells or endogenous on HEPG2, Hep3B and Huh-7 hepatocellular carcinoma cells; the cell line is named under assay; also called GPC3-CHOK1 cells; human GPC3 over-expressed CHOK1 cells
Test: FACS, HEPG2 cells
Description: To evaluate the antigen binding property, the humanized antibodies were analyzed for their binding to human GPC3 over-expressed CHOK1 cells, HEPG2 cells, Hep3B cells and Huh-7 cells by FACS. Briefly, GPC3-CHOK1 cells, HEPG2 cells, Hep3B cells and Huh-7 cells were firstly incubated with Fc blocking reagent at 4° C. for 15 mins. Cells were washed by FACS buffer and divided to each well with 4-fold serially diluted humanized antibodies starting at 10 μg/mL at 4° C. for 60 mins. […]
# EC50 annotations
reported_endpoint: EC50 (µg/mL)

INSERT INTO assay_data (binder, recorded_value) VALUES
  ('52H5D3B8-6#-VH1+VL3 (antibody, V domains shown, humanized) VH: QVQLVQSGAEVKKPGASVKVSCKASGYTFTDYEMHWVRQAPGQGLEWMGAIHPGSGGTAYNQKFKGRVTMTRDTSTSTVYMELSSLRSEDTAVYYCARYYSYAYWGQGTLVTVSS VL: DIVMTQTPLSLSVTPGQPASISCRSSQSLVHSNGNTYLQWYLQKPGQSPKLLIYKVSNRFSGVPDRFSGSGSGTDFTLKISRVEAEDVGVYYCFQSIHVPYTFGGGTKLEIK', 0.0387),
  ('52H5D3B8-6#-VH2+VL4 (antibody, V domains shown, humanized) VH: QVQLVQSGAEVKKPGASVKVSCKASGYTFTDYEMHWVRQAPGQGLEWIGAIHPGSGGTAYNQKFKGRVTMTADTSTSTVYMELSSLRSEDTAVYYCTRYYSYAYWGQGTLVTVSS VL: DIVMTQTPLSLSVTPGQPASISCRSSQSLVHSNGNTYLQWYLQKPGQSPKLLIYKVSNRFSGVPDRFSGSGSGTDFTLKISRVEAEDVGVYFCFQSIHVPYTFGGGTKLEIK', 0.0438);
